Catalogue of EC50 values
- target system: human FPR1 (Homo sapiens (Human))
- Sequence (P21462 whole entry): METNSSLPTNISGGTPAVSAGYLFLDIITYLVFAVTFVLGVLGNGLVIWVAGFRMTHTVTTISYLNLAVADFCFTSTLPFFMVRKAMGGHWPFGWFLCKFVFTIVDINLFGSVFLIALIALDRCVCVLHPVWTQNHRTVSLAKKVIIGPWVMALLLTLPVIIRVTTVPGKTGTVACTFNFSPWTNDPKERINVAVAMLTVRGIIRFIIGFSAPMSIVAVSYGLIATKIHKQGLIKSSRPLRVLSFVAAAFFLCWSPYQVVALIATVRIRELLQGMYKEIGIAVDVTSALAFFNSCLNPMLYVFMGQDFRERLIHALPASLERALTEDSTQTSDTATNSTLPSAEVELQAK
- assay notes: FPR1 cyclic adenosine monophosphate (cAMP) assay
- experimental parameters: CHO cells overexpressing human FPR1; forskolin 10 µM; inhibition of cAMP production; read-out: hFPR1 cAMP EC50
Respond numerically; units are nM and should not be typed.

The cases that follow already have their EC50 on record.
{"compound": "COc1cc(F)c([C@@H]2CN(c3c(C)ccn(CC4CC4)c3=O)C(=O)[C@H]2NC(=O)c2ccc(OC(F)(F)F)cc2)c(F)c1", "EC50, nM": 0.5}
{"compound": "COc1ccc([C@@H]2CN(c3ccnn(CC(F)F)c3=O)C(=O)[C@H]2NC(=O)c2ccc(OC(F)F)cc2)cc1", "EC50, nM": 11}

// below: EC50 requested for another compound
Any idea what EC50 was measured for COc1cc(F)c([C@@H]2CN(c3c(C)ccn(C4CCOC4)c3=O)C(=O)[C@H]2NC(=O)c2ccc(OC(F)(F)F)cc2)c(F)c1 (stereo partly drawn) [Example 655] ?
1.2
